Tested on: NCI-H522 lung
Test: NCI tumour cell line growth inhibition, 48 h; in the data active means GI50 below about 0.43 µM; inactive means the rest
// one of active, inactive, no free text

Query: Which outcome did this test record for the compound CN(C)CCCNC(=O)c1ccc2oc3cc4ccccc4c(=O)n3c2c1 ?
Response: inactive

Query: Would you mind doing N=C(N)/N=C(\N)c1c(-c2cc(O)ccc2O)nc2sccn12 as well?
Response: inactive

Query: Field entry: O=C1/C=C/[C@@H](O)[C@@H]2C[C@@H](O)C[C@H]2/C=C/CCC[C@H](CCc2ccc(C(F)(F)F)cc2)O1
Response: active

Query: Then this compound: Cc1cc(C(=O)Nc2nc3cccc(Cl)c3n2[C@@H]2CCCCN(C(=O)/C=C/CN(C)C)C2)ccn1
Response: active

Query: Next compound up: CNC(=O)c1c(NC(=O)c2ccc(C(F)(F)F)cc2)sc2c1CCC(=O)C2
Response: active

Query: Follow-up entry: COC(=O)C(Cc1cnc[nH]1)NC(=O)CNC(=O)CCCn1c(=O)c2c3ccccc3n(C)c2n2nnc(-c3ccccc3)c12 (centres undefined)
Response: inactive

Query: What do you have for Cc1cccc(-c2nn3c(c2-c2ccnc4ccc(C(N)=O)cc24)CCC3)n1 ?
Response: inactive

Query: What about this compound? NC(=NCCCC1(c2ccccc2)CCCC1)Nc1ccc(Cl)cc1
Response: inactive

Query: And for CCN(CC)CC.CCOc1ccc(NC(=O)N=C=[N-])cc1.[CH-]1CCCCC1.[CH-]1CCCCC1.[CH-]1CCCCC1.[Cl-].[Sn+4] ?
Response: active

###

System: NCI-H226 lung
Assay: NCI tumour cell line growth inhibition, 48 h; in the data active means GI50 below about 0.43 µM; inactive means the rest
Answer with one of the outcomes label 1 for active, label 0 for inactive

Here are 10 compounds together with their reported answers.
# Compound, Assigned Category
measured = [
    ("CNC(=O)c1c(NC(=O)c2ccc(C(F)(F)F)cc2)sc2c1CCC(=O)C2", "label 0"),
    ("COc1ccccc1/C=C/C(=O)c1c(O)cc2occc2c1OC", "label 0"),
    ("CCN(CC)CC.CCOc1ccc(NC(=O)N=C=[N-])cc1.[CH-]1CCCCC1.[CH-]1CCCCC1.[CH-]1CCCCC1.[Cl-].[Sn+4]", "label 1"),
    ("CN[C@@H](C)C(=O)N[C@H]1CN(C(=O)CC(C)C)CC[C@H]2CC[C@@H](C(=O)NC(c3ccccc3)c3ccccc3)N2C1=O", "label 0"),
    ("O=C1/C=C/[C@@H](O)[C@@H]2C[C@@H](O)C[C@H]2/C=C/CCC[C@H](CCc2ccc(C(F)(F)F)cc2)O1", "label 1"),
    ("O=C(N/N=C/c1ccccc1O)C(O)(c1ccccc1)c1ccccc1", "label 0"),
    ("CC(C)CC1C(=O)N2CCC[C@H]2C2(O)O[C@](NC(=O)C3C=C4c5cccc6[nH]c(Br)c(c56)C[C@H]4N(C)C3)(C(C)C)C(=O)N12 (some centres not stated)", "label 0"),
    ("CC(/C=C/C(=O)c1sc(-n2nc(-c3ccccc3)cc2-c2ccccc2)nc1C)=C\\c1ccccc1", "label 0"),
    ("Cc1cccc(-c2nn3c(c2-c2ccnc4ccc(C(N)=O)cc24)CCC3)n1", "label 0"),
    ("COc1ccccc1-c1cc(/C=C2\\C(=O)Nc3ncc(Br)cc32)cc(Br)c1O", "label 0"),
]

Query: Could you please tell me the result logged for CCc1c2c(nc3cc4c(c(N)c13)OCO4)-c1cc3c(c(=O)n1C2)COC(=O)[C@]3(O)CC in this assay?
Response: label 1

Query: Next up: C[C@@H](N)C1CCC(C(=O)Nc2ccncc2)CC1 (some centres not stated)
Response: label 0

Query: # iterate: CC(C)CCSC1=CC(=O)c2ccccc2C1=O
Response: label 0

Query: Same read-out for Cc1nc2ccccn2c1NC(=O)NNC(=S)Nc1ccc(Br)cc1 ?
Response: label 0

Query: Now give it for COc1c2c3ccccc3nc-2n(C)c2ccccc12 too.
Response: label 0

Query: Next: Cc1cc(C(=O)Nc2nc3cccc(Cl)c3n2[C@@H]2CCCCN(C(=O)/C=C/CN(C)C)C2)ccn1
Response: label 0

Query: Next up: Cc1ncc(C(=O)Nc2ccc(CN3CCN(C)CC3)c(C(F)(F)F)c2)cc1C#Cc1cnc(N)c2cnccc12
Response: label 1

###

Test system: OVCAR-5 ovarian
Assay: NCI tumour cell line growth inhibition, 48 h
Listed compounds paired with reported TGI

Observe how each entry below is paired with its result.
# Compound, TGI
measured = [
    ("C=C(C)CNC(=S)N(N)c1ccc(OC)cc1", "> 100 µM"),
    ("Cc1ncc(C(=O)Nc2ccc(CN3CCN(C)CC3)c(C(F)(F)F)c2)cc1C#Cc1cnc(N)c2cnccc12", "10.6 µM"),
    ("Cc1c(-c2ccccc2)[nH]c2ccc(Cl)cc2c1=O", "> 100 µM"),
    ("CC(C)(C)OC(=O)[C@@H]1CCC(=S)N1Cc1ccccc1", "> 100 µM"),
    ("O=c1cc(-c2ccccc2)oc2cc(OCC(O)COc3ccc4c(=O)cc(-c5ccccc5)oc4c3)ccc12", "> 100 µM"),
]

Query: Return reported TGI; argument: COc1cc(-c2nc(NC(C)=O)sc2-c2ccnc(NCCNS(=O)(=O)c3ccccc3)n2)ccc1Cl
Response: > 100 µM

Query: Then CC(C)(C)N1C(=O)c2ccccc2C1(O)C(F)(F)F (stereo not given) ?
Response: > 100 µM

Query: Again, but for O=C(CSc1nc2ccccc2nc1-c1ccccc1)Nc1ccc(Cl)cc1
Response: > 100 µM

###

Test system: HOP-92 NSCLC
Assay: NCI tumour cell line growth inhibition, 48 h
Readout Kind: TGI (µM)
Provide the reading as a plain figure in µM.

# Molecule, Tested On, Readout Kind, Unit Of Measure, Experimental Value
data = [
    ("Cc1ccc(-c2cc(-c3ccc(Cl)cc3)nc(/N=C3\\C(=O)N(CN4CCOCC4)c4ccccc43)n2)cc1", "HOP-92 NSCLC", "TGI", "µM", 62.7),
]

Query: What value of TGI has been reported for the following molecule? CCCc1cc(=O)oc2c(C=O)c(O)cc(O)c12
Response: 45.8

Query: Another molecule: Cc1c(-c2ccccc2)[nH]c2ccc(Cl)cc2c1=O
Response: 52

Query: Same read-out for CCN(CC)CCCC(C)Nc1cc(-c2ccc(C(F)(F)F)cc2)c(C#N)c2nc3ccccc3n12 (stereo not given) ?
Response: 3.43

Query: C[C@H]1CC[C@H]([C@@H](C)[C@H]2[C@@H](O)C[C@H]3[C@@H]4CC[C@H]5C[C@@H](O)CC[C@]5(C)[C@H]4CC[C@]23C)NC1 ?
Response: 33.7

Query: Do the same for O=C(/C=C/c1ccc(O)c(O)c1)OCc1ccccc1 please
Response: 58

Query: Would you kindly repeat that for O=C1C=CC(=O)c2c1cc([N+](=O)[O-])c1ccoc21 ?
Response: 5

Query: What about this molecule? O=c1cc(-c2ccccc2)oc2cc(OCC(O)COc3ccc4c(=O)cc(-c5ccccc5)oc4c3)ccc12
Response: 95.5

Query: What would you report for COc1ccc(CCN2CCCN3C2=Nc2ccccc2S3(=O)=O)cc1 ?
Response: 13.4

###

System: RPMI-8226 leukemia
Test: NCI tumour cell line growth inhibition, 48 h; in the data active = GI50 below about 0.43 µM; inactive = the rest
Hello, when you answer, please use one of the following outcomes: active, inactive

Solved cases (6 shown):
# Compound, Assigned Category
records = [
    ("COc1c2c3ccccc3nc-2n(C)c2ccccc12", "inactive"),
    ("COC(=O)[C@H]1C(=O)[C@@]2(C)[C@H]([C@H](OC(=O)c3ccccc3)[C@]3(O)C[C@H](OC(=O)[C@H](O)[C@@H](NC(=O)c4ccc(F)cc4)c4ccccc4)C(C)=C1C3(C)C)[C@]1(OC(C)=O)CO[C@@H]1C[C@@H]2O", "active"),
    ("C=CC(=O)N1C/C(=C\\c2ccccc2)C(=O)/C(=C/c2ccccc2)C1", "active"),
    ("C[C@@H](N)C1CCC(C(=O)Nc2ccncc2)CC1 (stereo partly specified)", "inactive"),
    ("CN[C@@H](C)C(=O)N[C@H]1CN(C(=O)CC(C)C)CC[C@H]2CC[C@@H](C(=O)NC(c3ccccc3)c3ccccc3)N2C1=O", "inactive"),
    ("COC(=O)[C@H]1[C@@H](O)[C@@]2(O)c3c(OC)cc(O[C@@H]4O[C@@H]([C@H](O)CO)CO[C@H]4OC)cc3O[C@@]2(c2ccc(OC)cc2)[C@@H]1c1ccccc1", "active"),
]

Query: Can you look up the reported call for CNC(=O)c1c(NC(=O)c2ccc(C(F)(F)F)cc2)sc2c1CCC(=O)C2 for me?
Response: active

Query: Same for NC(=O)C1c2ccccc2C=Cc2ccccc21
Response: inactive

Query: Now the same for NC(=NCCCC1(c2ccccc2)CCCC1)Nc1ccc(Cl)cc1
Response: inactive

Query: Would you mind doing O=C(N/N=C/c1ccccc1O)C(O)(c1ccccc1)c1ccccc1 as well?
Response: inactive

Query: Please do the same for CC(C)CCSC1=CC(=O)c2ccccc2C1=O as well.
Response: active

Numbers sourced from PubChem BioAssay (NCI).
